Recorded values, source patent US20120276102A1.

# targetDesc: human IL-21R expressed on cells (human, UniProt Q9HBE5 20-538)
# Sequence (Q9HBE5 20-538 limits assumed): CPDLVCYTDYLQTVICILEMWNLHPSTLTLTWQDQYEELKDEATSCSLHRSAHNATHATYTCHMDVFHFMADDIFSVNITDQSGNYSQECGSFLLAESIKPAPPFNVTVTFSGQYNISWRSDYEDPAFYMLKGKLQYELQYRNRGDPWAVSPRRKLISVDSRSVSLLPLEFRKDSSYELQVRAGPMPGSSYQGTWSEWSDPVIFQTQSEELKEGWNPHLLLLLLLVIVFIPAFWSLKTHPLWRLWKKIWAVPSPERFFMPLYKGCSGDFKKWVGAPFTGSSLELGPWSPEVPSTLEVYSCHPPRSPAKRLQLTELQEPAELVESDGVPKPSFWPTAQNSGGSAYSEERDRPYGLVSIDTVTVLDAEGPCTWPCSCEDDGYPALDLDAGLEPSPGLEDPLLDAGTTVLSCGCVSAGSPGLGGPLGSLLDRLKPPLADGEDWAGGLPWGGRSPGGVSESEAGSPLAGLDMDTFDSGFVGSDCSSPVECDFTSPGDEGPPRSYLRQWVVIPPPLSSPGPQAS
# methodSummary: cell-based or functional assay
Answer each item with its documented Neutralization of human primary T cell Proliferation IC50.
Give me the value, and tack the unit on after it.

Neutralization of human primary T cell Proliferation IC50 measured on AbO (antibody, human IgG1, V domains shown, CDR3 graft, residue limits derived as for m29; also called VHP/VL16; VHPTM/VL16) VH: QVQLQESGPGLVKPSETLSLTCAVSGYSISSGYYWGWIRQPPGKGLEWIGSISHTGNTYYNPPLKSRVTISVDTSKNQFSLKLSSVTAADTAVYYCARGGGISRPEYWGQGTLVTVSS VL: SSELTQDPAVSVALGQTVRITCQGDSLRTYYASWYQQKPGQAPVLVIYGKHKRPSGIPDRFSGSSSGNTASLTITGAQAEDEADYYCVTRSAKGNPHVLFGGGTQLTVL = 0.06 nM

Neutralization of human primary T cell Proliferation IC50 measured on AbT (antibody, human IgG1, V domains shown, CDR3 graft, residue limits derived as for m29; also called VHP/VL9; VHPTM/VL9) VH: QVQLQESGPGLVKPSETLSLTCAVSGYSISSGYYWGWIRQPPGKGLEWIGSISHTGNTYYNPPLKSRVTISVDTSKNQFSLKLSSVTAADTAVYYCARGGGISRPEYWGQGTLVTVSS VL: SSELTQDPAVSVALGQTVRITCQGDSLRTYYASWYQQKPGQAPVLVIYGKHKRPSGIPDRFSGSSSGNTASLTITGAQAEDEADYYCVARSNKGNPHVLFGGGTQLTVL = 0.03 nM

Neutralization of human primary T cell Proliferation IC50 measured on AbU (antibody, human IgG1, V domains shown, CDR3 graft, residue limits derived as for m29; also called VHP/VL25; VHPTM/VL25) VH: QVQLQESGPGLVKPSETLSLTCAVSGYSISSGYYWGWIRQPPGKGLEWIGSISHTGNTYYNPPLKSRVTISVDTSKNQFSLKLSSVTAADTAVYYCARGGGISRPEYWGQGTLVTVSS VL: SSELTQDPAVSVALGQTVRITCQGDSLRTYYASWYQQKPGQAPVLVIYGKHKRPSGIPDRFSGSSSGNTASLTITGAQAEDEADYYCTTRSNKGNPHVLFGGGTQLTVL = 0.03 nM

Neutralization of human primary T cell Proliferation IC50 measured on AbS (antibody, V domains shown, CDR3 graft, residue limits derived as for m29; also called VHP/VL6; VHPTM/VL6) VH: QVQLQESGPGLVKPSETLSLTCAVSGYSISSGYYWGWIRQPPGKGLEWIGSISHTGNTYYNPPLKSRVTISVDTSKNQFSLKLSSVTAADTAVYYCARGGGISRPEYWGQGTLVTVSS VL: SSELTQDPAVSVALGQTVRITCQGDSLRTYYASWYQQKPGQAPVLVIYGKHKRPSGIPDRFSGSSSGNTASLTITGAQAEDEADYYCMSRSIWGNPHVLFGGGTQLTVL = 0.06 nM
